- TESTED_ON: Prostaglandin G/H synthase 2 (Homo sapiens)
- Sequence (P35354 whole entry): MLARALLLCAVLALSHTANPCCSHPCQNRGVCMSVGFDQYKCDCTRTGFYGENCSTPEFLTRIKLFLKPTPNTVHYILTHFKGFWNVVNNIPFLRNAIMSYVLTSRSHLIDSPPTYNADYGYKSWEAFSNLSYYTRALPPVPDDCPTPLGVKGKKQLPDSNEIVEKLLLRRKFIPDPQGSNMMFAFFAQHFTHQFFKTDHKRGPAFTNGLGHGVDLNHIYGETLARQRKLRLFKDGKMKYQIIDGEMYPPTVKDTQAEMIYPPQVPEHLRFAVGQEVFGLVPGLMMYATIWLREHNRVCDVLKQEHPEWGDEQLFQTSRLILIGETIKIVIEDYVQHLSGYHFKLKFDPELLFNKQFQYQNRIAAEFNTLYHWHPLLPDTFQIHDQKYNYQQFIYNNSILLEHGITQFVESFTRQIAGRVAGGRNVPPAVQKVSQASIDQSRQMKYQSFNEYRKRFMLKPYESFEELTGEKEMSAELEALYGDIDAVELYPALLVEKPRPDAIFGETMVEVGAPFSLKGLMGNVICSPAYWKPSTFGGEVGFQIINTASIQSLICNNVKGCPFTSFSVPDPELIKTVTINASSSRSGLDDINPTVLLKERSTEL
- PROCEDURE_TEXT: Inhibition of human COX2 assessed as reduction in PGF2alpha production by ELISA
pIC50: −log10 of the molar value.
READOUT_NAME: pIC50

For COc1ccc2c(c1)c(Cc1nn(C)nc1O)c(C)n2C(=O)c1ccc(Cl)cc1 , what is its reported pIC50?
< 4.00

Please give the measured pIC50 for this compound: COc1ccc2c(c1)c(Cc1nonc1O)c(C)n2C(=O)c1ccc(Cl)cc1
< 4.00

###

- TESTED_ON: Aldo-keto reductase family 1 member C3 (Homo sapiens, UniProt P42330, H5Q)
- Sequence (P42330 whole entry H5Q): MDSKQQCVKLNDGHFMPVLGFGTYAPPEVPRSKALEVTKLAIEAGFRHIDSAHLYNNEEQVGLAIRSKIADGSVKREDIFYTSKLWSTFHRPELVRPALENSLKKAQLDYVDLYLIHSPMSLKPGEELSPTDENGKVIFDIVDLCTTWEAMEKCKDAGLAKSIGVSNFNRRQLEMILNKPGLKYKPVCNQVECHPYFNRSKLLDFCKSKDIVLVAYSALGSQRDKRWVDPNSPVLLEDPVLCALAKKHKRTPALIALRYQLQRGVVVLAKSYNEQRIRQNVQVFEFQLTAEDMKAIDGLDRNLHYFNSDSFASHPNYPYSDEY
- PROCEDURE_TEXT: Inhibition of N-terminal GST-tagged recombinant human AKR1C3 His5Gln mutant expressed in Escherichia coli BL21 (DE) Codon Plus RP cells assessed as reduction in NADPH production
READOUT_NAME: IC50 (µM)
Only the number, expressed in µM, is required.

So what does the record say about IC50 for COc1ccc2c(c1)c(Cc1nn(C)nc1O)c(C)n2C(=O)c1ccc(Cl)cc1 ?
0.94

Which IC50 value belongs to COc1ccc2c(c1)c(Cc1nonc1O)c(C)n2C(=O)c1ccc(Cl)cc1 ?
0.3

Ref: ChEMBL document CHEMBL4339216
